# System: PmTbr T-box DNA-binding domain (GST fusion);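 note: 200 nM protein in PBS on universal arrays averaged over duplicate arrays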
# Sequence: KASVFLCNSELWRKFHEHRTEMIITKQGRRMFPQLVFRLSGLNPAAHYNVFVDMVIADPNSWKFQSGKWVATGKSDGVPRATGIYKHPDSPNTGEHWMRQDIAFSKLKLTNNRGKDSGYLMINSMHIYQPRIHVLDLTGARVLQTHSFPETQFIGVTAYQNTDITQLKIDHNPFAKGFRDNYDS
# protocol-notes: PBM E-score of 8-mer (E-score (dimensionless, -0.5 to 0.5)); higher = stronger binding preference
# run-conditions: the construct has about 5 more residues each side
In all, about 33,000 sequences were measured (“E-score (dimensionless, -0.5 to 0.5)”: median about -0.049, highest 2% from about 0.37 on). The full list was thinned out, with the highest values kept by preference.
Assign y whenever PBM E-score of 8-mer does not fall below 0.2; assign n whenever it does.

Decide: PBM E-score of 8-mer of AAGAAGTC >= 0.2?
n

Could you please find out whether AGGAGGTG has PBM E-score of 8-mer that meets 0.2 or exceeds it?
y

Form field: PBM E-score of 8-mer at least 0.2? Entry: CGCTTCAA
n

----------
# Tested on: PmTbr T-box DNA-binding domain (GST fusion);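 note: 200 nM protein in PBS on universal arrays averaged over duplicate arrays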
# Sequence: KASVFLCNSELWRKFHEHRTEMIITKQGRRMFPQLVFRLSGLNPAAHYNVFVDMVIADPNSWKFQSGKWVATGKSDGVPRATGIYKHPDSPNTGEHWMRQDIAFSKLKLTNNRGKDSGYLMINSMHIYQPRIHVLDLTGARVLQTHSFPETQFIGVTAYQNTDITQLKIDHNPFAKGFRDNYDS
# protocol-notes: PBM E-score of 8-mer (E-score (dimensionless, -0.5 to 0.5)); higher = stronger binding preference
# run-conditions: target sequence: T-box / the construct has about 5 more residues each side
Over roughly 33,000 sequences, “E-score (dimensionless, -0.5 to 0.5)” has its median near -0.049; the highest 2% begin near 0.37. This is one part of a sample in which the highest values are shown more often than they occur.
readout-type: PBM E-score of 8-mer
Quick one: just the number, no unit, thanks!

Previously resolved entries follow.
ACACACAT = 0.288
CGCACCAA = 0.251
CAGTGCGG = -0.0389

Which PBM E-score of 8-mer is listed for CAGTGCGA ?
0.386

Dear colleague, I am looking for the recorded PBM E-score of 8-mer of the following sequence: CTAGTCCC
-0.132

Consider the sequence CGACCAAC and give its measured PBM E-score of 8-mer.
0.00547

Form field: reported PBM E-score of 8-mer of AGTGCTGC
0.0868

Any idea what PBM E-score of 8-mer was measured for GATTCAGA ?
-0.206

Report PBM E-score of 8-mer for TAAACCCA please.
-0.0858

----------
# System: PmTbr T-box DNA-binding domain (GST fusion);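 note: 200 nM protein in PBS on universal arrays averaged over duplicate arrays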
# Sequence: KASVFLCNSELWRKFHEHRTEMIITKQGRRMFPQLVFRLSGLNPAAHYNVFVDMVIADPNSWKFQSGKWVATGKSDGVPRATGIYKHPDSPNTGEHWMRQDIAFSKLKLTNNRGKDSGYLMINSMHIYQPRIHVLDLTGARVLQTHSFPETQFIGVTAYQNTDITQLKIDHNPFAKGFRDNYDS
# protocol-notes: PBM E-score of 8-mer (E-score (dimensionless, -0.5 to 0.5)); higher = stronger binding preference
# run-conditions: target sequence: T-box / the construct has about 5 more residues each side
Over roughly 33,000 sequences, “E-score (dimensionless, -0.5 to 0.5)” has its median near -0.049; the highest 2% begin near 0.37. This excerpt belongs to a sample that is enriched for the highest values.
readout-type: PBM E-score of 8-mer
Just the number, please.

TGTGCTAA = 0.346
CGCTTGAG = -0.0499
GAGGTGGC = 0.372
AGTGCTAA = 0.421
ATCGCAGG = 0.0806

For the sequence shown here, GGGCACCA , give the reported PBM E-score of 8-mer.
-0.125

Report PBM E-score of 8-mer for CGACCTGC please.
0.196

Given the entry CCAGGTCC , report its measured PBM E-score of 8-mer.
-0.114

Could you tell me which PBM E-score of 8-mer is on file for GCAGGTCA ?
0.103

Which measured PBM E-score of 8-mer value corresponds to ACAGGTGA ?
0.406

Can you look up the measured PBM E-score of 8-mer of ACACCTGG for me?
0.466

Quick one: PBM E-score of 8-mer for GAAGCTCC ?
-0.342

# input sequence: CAGCACCA ; wanted: its PBM E-score of 8-mer
0.0936

What value of PBM E-score of 8-mer has been recorded for this entry: GAGCACCA
-0.0664

Would you mind telling me what PBM E-score of 8-mer value was observed for CACGTGAC ?
0.315

Which PBM E-score of 8-mer reading was recorded for the sequence ACCGTGTG ?
0.218

I have this sequence here, ATTCGCGC , and I need its recorded PBM E-score of 8-mer.
0.39

----------
# Test system: PmTbr T-box DNA-binding domain (GST fusion);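 note: 200 nM protein in PBS on universal arrays averaged over duplicate arrays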
# Sequence: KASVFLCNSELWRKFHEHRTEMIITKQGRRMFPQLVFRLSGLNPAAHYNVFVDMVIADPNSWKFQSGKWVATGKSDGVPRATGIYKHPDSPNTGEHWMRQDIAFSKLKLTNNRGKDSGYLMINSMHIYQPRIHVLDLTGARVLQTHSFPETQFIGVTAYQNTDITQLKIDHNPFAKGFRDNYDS
# protocol-notes: PBM E-score of 8-mer (E-score (dimensionless, -0.5 to 0.5)); higher = stronger binding preference
# run-conditions: target sequence: T-box / the construct has about 5 more residues each side
Whole data set: some 33,000 sequences, median “E-score (dimensionless, -0.5 to 0.5)” near -0.049, cut for the highest 2% near 0.37. Many of the other results were omitted from the sample, so the highest values are more common in it than they were.
Kind request: treat 0.3 as inclusive, so PBM E-score of 8-mer at 0.3 or higher is 1 (yes), anything lower is 0 (no).

# count of solved cases: 3
GAAGGTCC = 0 (no)
ACACCCTA = 1 (yes)
CAAGGTGG = 1 (yes)

# next sequence below
Identify whether the reported PBM E-score of 8-mer of the following sequence is 0.3 or greater: CAAGGTGA
1 (yes)

----------
PBM E-score of 8-mer: recorded values
# System: PmTbr T-box DNA-binding domain (GST fusion);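 note: 200 nM protein in PBS on universal arrays averaged over duplicate arrays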
# Sequence: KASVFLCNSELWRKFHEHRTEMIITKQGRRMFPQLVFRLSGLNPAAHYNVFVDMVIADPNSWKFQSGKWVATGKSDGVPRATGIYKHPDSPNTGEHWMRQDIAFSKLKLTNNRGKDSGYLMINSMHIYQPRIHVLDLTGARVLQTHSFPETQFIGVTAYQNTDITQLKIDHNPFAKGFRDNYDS
# protocol-notes: PBM E-score of 8-mer (E-score (dimensionless, -0.5 to 0.5)); higher = stronger binding preference
# run-conditions: target sequence: T-box / the construct has about 5 more residues each side
In all, about 33,000 sequences were measured (“E-score (dimensionless, -0.5 to 0.5)”: median about -0.049, highest 2% from about 0.37 on). The list comes from a sample in which the highest values are over-represented; it also holds close analogues and randomly drawn sequences.
Give a plain numeric answer without units written out.

AGTGATAA = 0.317
AGAGCACT = -0.194
CAGCCAGA = -0.0394
GGCCTGAC = -0.103
GGTGATAA = 0.413

Any idea what PBM E-score of 8-mer was measured for CACGCAAC ?
0.024

What does the record list as PBM E-score of 8-mer for GCACCTCC ?
0.432

----------
# Test system: PmTbr T-box DNA-binding domain (GST fusion);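 note: 200 nM protein in PBS on universal arrays averaged over duplicate arrays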
# Sequence: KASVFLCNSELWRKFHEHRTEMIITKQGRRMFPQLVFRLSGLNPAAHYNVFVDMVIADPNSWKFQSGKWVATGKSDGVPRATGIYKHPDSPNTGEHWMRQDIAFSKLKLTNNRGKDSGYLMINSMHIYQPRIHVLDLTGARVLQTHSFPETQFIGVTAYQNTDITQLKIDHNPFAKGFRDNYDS
# protocol-notes: PBM E-score of 8-mer (E-score (dimensionless, -0.5 to 0.5)); Tbr is Tbrain of the sea star Patiria miniata (Pm) or the sea urchin Strongylocentrotus purpuratus (Sp); higher = stronger binding preference
# run-conditions: target sequence: T-box / the construct has about 5 more residues each side
Whole data set: some 33,000 sequences, median “E-score (dimensionless, -0.5 to 0.5)” near -0.049, cut for the highest 2% near 0.37. This is one part of a sample in which the highest values are shown more often than they occur.
readout-type: PBM E-score of 8-mer
Form field (numeric): enter value without unit.

Examples with their reported PBM E-score of 8-mer follow.
TAGCGCGA = 0.38
CTCGCGAA = 0.368
TAAGTGGA = -0.141

Fill blank: measured PBM E-score of 8-mer of the sequence ATGTGCTG is ____.
0.177

I'd like to know its PBM E-score of 8-mer. The sequence in question is CAGCGCGA
0.203

I would be grateful if you could share the reported PBM E-score of 8-mer for AAATTCTT .
-0.155

Look up PBM E-score of 8-mer for this sequence: ACGTGACT
0.0526

Recorded PBM E-score of 8-mer for GGCGCGCA , please?
0.0945

Recorded PBM E-score of 8-mer for CACGTCCG , please?
0.26

If you can, please state the reported PBM E-score of 8-mer value of AACAAGCT .
-0.168
